# system.tested: DLL3 (Homo sapiens, UniProt Q9NYJ7)
# Sequence (Q9NYJ7 27-618): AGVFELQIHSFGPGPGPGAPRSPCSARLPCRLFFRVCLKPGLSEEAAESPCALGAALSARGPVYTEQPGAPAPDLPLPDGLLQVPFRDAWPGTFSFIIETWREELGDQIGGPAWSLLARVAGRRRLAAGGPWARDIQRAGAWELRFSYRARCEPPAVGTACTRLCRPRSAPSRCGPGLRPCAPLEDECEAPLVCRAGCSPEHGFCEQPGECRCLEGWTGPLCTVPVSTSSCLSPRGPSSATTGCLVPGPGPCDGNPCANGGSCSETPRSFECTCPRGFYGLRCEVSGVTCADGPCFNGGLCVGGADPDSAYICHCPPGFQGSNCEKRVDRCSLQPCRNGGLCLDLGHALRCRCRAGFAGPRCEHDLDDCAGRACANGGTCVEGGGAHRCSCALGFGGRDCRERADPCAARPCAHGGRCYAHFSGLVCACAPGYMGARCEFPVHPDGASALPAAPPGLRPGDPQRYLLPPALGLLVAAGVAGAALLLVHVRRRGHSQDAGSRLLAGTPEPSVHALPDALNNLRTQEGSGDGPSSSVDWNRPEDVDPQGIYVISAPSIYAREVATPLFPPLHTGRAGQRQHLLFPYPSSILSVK
# assay.procedure: SPR KD, biotinylated human DLL3 on streptavidin chip (Table 8)
# Set-up: biotin (biotinylated)
# condition.description: biotinylated human DLL3 on streptavidin sensor chip, 25° C., 1:1 binding model; read-out: SPR KD
pKd: −log10 of the molar value. Where a SMILES comes first, the peptide text is derived from it. Bridges are numbered along the chain shown (N, C = ends). [ ]: non-standard residue; d: D form. Phe(4-CF3) = N[C@@H](Cc1ccc(C(F)(F)F)cc1)C(=O)O
endpoint.label: pKd

**Query** Find the recorded pKd belonging to CC[C@H](C)[C@H](NC(=O)[C@@H](NC(=O)[C@H](Cc1ccc(C(F)(F)F)cc1)NC(C)=O)[C@@H](C)O)C(=O)N[C@H]1CSSC[C@@H](C(=O)N[C@@H](Cc2c[nH]c3ccccc23)C(=O)N2CCC[C@H]2C(N)=O)NC(=O)[C@H](CC(=O)O)NC(=O)[C@H](Cc2cnc[nH]2)NC(=O)[C@H](Cc2c[nH]c3ccccc23)NC(=O)[C@H](CC(N)=O)NC(=O)[C@H](CC(N)=O)NC1=O [compound 215] (Ac-[Phe(4-CF3)]TICNNWHDCWP-NH2; disulfide 4-10) and report it.
**Result** 7.00 to 8.00
